// values below are reported fold improvement kd
biological target: T1, bacterially produced human IL-6 (human, UniProt P05231 30-212); experiment: SPR; periplasmic fraction; against parental 29B11
T1 construct: also called bactIL-6; prokaryotic IL-6
Could you give me the number in fold? Just the number is fine.

Fab 48C10 (Fab, V domains shown, VL-shuffled Fab of 29B11, periplasmic fraction) VH: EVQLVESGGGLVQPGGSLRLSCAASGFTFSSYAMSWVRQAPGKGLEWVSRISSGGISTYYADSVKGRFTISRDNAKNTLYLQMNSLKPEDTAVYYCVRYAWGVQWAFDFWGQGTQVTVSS VL: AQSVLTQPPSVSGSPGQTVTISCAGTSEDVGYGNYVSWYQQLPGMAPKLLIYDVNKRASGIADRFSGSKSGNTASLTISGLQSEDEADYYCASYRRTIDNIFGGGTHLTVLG :: 0.71
Fab 55E2 (Fab, V domains shown, VL-shuffled Fab of 29B11, periplasmic fraction; also called 55E2b) VH: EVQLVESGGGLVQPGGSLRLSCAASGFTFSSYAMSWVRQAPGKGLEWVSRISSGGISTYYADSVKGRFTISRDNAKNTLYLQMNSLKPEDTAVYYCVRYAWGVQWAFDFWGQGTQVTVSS VL: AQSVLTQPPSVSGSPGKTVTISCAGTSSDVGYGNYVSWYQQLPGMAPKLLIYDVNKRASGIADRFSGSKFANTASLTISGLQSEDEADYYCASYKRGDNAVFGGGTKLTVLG :: 1.95
Fab 47C2 (Fab, V domains shown, VL-shuffled Fab of 29B11, periplasmic fraction; also called 47C2 (R4)) VH: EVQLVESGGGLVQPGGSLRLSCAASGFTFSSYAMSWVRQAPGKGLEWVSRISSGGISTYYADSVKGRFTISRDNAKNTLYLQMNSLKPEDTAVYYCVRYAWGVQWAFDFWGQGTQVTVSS VL: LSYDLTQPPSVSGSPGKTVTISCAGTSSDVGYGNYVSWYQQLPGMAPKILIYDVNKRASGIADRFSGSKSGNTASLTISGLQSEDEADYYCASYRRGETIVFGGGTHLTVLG :: 0.42

Quick note, fold improvement kd for Fab 55H1 (Fab, V domains shown, VL-shuffled Fab of 29B11, periplasmic fraction; also called 55H1c) VH: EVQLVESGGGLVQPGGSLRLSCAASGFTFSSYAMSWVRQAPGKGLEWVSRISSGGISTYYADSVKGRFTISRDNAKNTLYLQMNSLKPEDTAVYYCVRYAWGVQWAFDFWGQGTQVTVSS VL: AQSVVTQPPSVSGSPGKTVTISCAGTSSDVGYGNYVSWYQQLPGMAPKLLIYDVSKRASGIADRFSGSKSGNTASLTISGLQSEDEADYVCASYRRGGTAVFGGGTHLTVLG landed at 1.03

Data provenance is patent US20220073604A1.
